From: paper PMC8246649

Target: UNC119B, full-length, C-terminal His6 (human, UniProt A6NIH7 1-251)
Experiment: fluorescence polarisation
No end group written: not given here. *: point of attachment. Myristoyl = CCCCCCCCCCCCCC(=O)*
READOUT_LABEL: binding result

• Myristoyl-GNAAAAKKGK(FAM) [PKA peptide Myr-GNAAAAKKGK-FAM] = binds
• Myristoyl-GAAASRRRAK(FAM) [NSMF peptide Myr-GAAASRRRAK-FAM] = binds
• Myristoyl-GNAAGSAEQPAGK(FAM) [FMNL1 peptide Myr-GNAAGSAEQPAGK-FAM] = binds
• Myristoyl-GCTVSAEDK(FAM) [GNAI2 peptide Myr-GCTVSAEDK-FAM] = binds

Moving on to the next binder.
Note down binding result recorded for Myristoyl-GAGASAEEKHSRK(FAM) [GNAT1 peptide Myr-GAGASAEEKHSRK-FAM]
binds
